Test system: HepG2
ASSAY: cytotoxicity call (relative viability < 0.9)
COND: 10 µM
About 3,300 (8.5%) of roughly 39,000 compounds were called active. For the sample, actives were picked, then their nearest neighbours and some compounds at random.
Select the correct class. Options are active, inactive and nothing else.

C[C@@H]1CN([C@H](C)CO)C(=O)c2cc(NS(C)(=O)=O)ccc2O[C@@H](C)CCCCO[C@H]1CN(C)C(=O)Nc1ccc(C(F)(F)F)cc1 :: inactive

# outcome recorded in this test, key = `COc1ccc(C(=O)O)c(O)c1OC` inactive

What did the test return for `O=C(Nc1ccc2c(c1)[C@H]1C[C@H](CC(=O)N3CCc4ccccc4C3)O[C@@H](CO)[C@H]1O2)C1CCOCC1` ? inactive

Lab log entry: `COc1cccc(-c2cn(CC[C@@H]3CC[C@@H](NS(=O)(=O)c4ccccc4Cl)[C@H](CO)O3)nn2)c1` — outcome as called in the assay? inactive

Give the logged outcome of this assay for the following compound: `CN[C@@H]1[C@@H](C)O[C@@H](O[C@H]2[C@H](C)O[C@@H](O[C@@H]3/C(C)=C/C[C@@H]4C[C@@H](C[C@]5(C=C[C@H](C)[C@@H](C(C)C)O5)O4)OC(=O)[C@@H]4C=C(C)[C@@H](O)[C@H]5OC/C(=C\C=C\[C@@H]3C)[C@]54O)C[C@@H]2OC)C[C@H]1OC` active

Field: outcome | Entry: `O=C(Nc1cccc2ccccc12)c1ccc(C(F)(F)F)cc1` inactive

###

Test system: HepG2
ASSAY: cytotoxicity call (relative viability < 0.9)
COND: 10 µM
Out of some 39,000 compounds screened, about 3,300 (8.5%) were called active. Many of the other results were omitted from the sample, so actives are more common in it than they were.
Result category, one only: true (active), false (inactive)

Assay outcome for NCCCC[C@H](NC(=O)[C@@H]1CCCN1C(=O)[C@@H]1CSSC[C@H](N)C(=O)N[C@@H](Cc2ccccc2)C(=O)N[C@@H](Cc2ccccc2)C(=O)NC(CCC(N)=O)C(=O)N[C@@H](CC(N)=O)C(=O)N1)C(=O)NCC(N)=O (stereo partly drawn) : what was it? false

For this compound, state the assay outcome: `O=C(c1cn(Cc2cncn2Cc2ccc(Br)cc2)cc1-c1cccc2ccccc12)N1CCOCC1` true

How did this test come out for `O=C(Nc1ccc(Oc2ccc(Cl)cc2)c(Cl)c1)c1cc(I)cc(I)c1O` ? true

I would be grateful if you could indicate the recorded call for `C[C@@H]1CN([C@H](C)CO)C(=O)Cc2cc(NC(=O)C3CC3)ccc2O[C@H]1CN(C)C(=O)Nc1ccc2c(c1)OCO2` . false

// param item: `O=C(c1ccccc1O)N1CCOCC1` ; yields the recorded call false

// param item: `CC(C)NC(=O)N(C)C[C@H]1OCCCC[C@@H](C)Oc2ccc(NC(=O)Nc3cccc4ccccc34)cc2C(=O)N([C@H](C)CO)C[C@@H]1C` ; yields the recorded call false

Name the outcome recorded for `O=C(NO)c1cccc(C(=O)N/N=C/c2cc(I)cc(I)c2O)c1` in the assay. false

Call for entry `COc1ccc(CN(C)C[C@H]2Oc3ccc(NC(=O)Cn4cnnn4)cc3CC(=O)N([C@H](C)CO)C[C@H]2C)cc1` : false

###

System: HepG2
ASSAY: cytotoxicity call (relative viability < 0.9)
COND: 10 µM
In all, about 39,000 compounds went through this assay and about 3,300 (8.5%) were called active. This excerpt belongs to a sample that is enriched for actives.
// one of 1 = active, -1 = inactive, no free text

Example cases with answers are listed next.
C[C@@H]1CN([C@@H](C)CO)C(=O)c2cc(NC(=O)C3CC3)ccc2O[C@@H]1CN(C)S(=O)(=O)c1cccs1 :: -1
O=C(N[C@@H](c1ccc2c(c1)OCO2)c1ccccn1)C1CCN(CCOc2ccc(Cl)cc2Cl)CC1 :: -1
C[C@H]1CN([C@@H](C)CO)C(=O)c2cccc(NC(=O)c3cnccn3)c2O[C@@H]1CN(C)Cc1ccc(C(=O)O)cc1 :: -1

Continue with the next molecule.
Lab log entry: `O=C(N[C@@H](c1ccc(-c2ccccc2)cc1)c1cnccn1)C1CCN(CCOc2ccc(F)cc2)CC1` — outcome as called in the assay? 1
